Recorded values, source patent US8344008B2.

Tested On: recombinant human LTA4 hydrolase (rhLTA4H) (Homo sapiens)
Sequence (P09960 1-611): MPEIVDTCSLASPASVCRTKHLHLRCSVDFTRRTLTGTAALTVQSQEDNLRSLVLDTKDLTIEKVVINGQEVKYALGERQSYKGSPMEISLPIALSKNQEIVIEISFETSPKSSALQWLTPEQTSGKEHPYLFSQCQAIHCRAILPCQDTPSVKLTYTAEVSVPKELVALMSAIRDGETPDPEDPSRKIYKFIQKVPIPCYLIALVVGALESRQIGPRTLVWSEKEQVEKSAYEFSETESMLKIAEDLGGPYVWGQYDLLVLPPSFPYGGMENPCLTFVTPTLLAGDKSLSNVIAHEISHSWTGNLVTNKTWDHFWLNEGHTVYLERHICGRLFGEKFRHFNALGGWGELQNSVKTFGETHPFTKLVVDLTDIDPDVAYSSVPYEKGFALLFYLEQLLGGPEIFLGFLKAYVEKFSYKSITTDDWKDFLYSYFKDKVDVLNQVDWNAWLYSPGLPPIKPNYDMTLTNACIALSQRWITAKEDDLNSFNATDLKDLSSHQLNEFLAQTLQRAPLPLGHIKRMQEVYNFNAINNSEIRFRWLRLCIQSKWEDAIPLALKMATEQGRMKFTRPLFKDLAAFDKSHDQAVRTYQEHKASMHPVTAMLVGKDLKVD
Test Summary: Recombinant Human LTA4 Hydrolase Assay for LTA4 Hydrolase Inhibitor Activity
Cond: average of results obtained; LTB4 quantified by enzyme-linked immunoassay
pKi: −log10 of the molar value.
Short version: pKi at least 7 is TRUE, less is FALSE.

Would you please look over these solved cases?
CC(=O)N[C@H]1C[C@H]2CC[C@@H](C1)N2Cc1ccc(Oc2nc3c(Cl)cccc3s2)cc1; TRUE
O=C(C1CC1)N1CC2CN(Cc3ccc(Oc4nc5ccccc5s4)cc3)CC2C1 (stereo not shown); TRUE
NC(=O)N1CC2CCC(C1)N2Cc1ccc(Oc2nc3ccccc3s2)cc1F; FALSE
CC(=O)N1[C@@H]2CC[C@H]1C[C@H](NCc1ccc(Oc3nc4cc(F)ccc4s3)cc1)C2; FALSE
O=C(O)c1ccc(CN2CC3CN(Cc4ccc(Oc5nc6ccccc6s5)cc4)CC3C2)cc1 (stereo not shown); TRUE
NC(=O)N[C@@H]1C[C@H]2CC[C@@H](C1)N2CCc1ccc(Oc2nc3ccc(F)cc3s2)cc1; TRUE

Data request: Exam item: decide whether the reported pKi for NC(=O)N1[C@@H]2CC[C@H]1C[C@H](NCCOc1ccc(Oc3nc4ccc(F)cc4s3)cc1)C2 is at least 7.
Data returned: FALSE

Data request: Can CS(=O)(=O)N1C[C@H]2C[C@@H]1CN2CCc1ccc(Oc2nc3cccc(Cl)c3s2)cc1 be said to have pKi at or above 7?
Data returned: FALSE

Data request: Quick check, pKi >= 7? O=C([C@H]1CCOC1)N1C[C@@H]2C[C@H]1CN2Cc1ccc(Oc2nc3ccccc3s2)cc1
Data returned: TRUE

---

Tested On: recombinant human LTA4 hydrolase (rhLTA4H) (Homo sapiens, UniProt P09960)
Test Summary: Recombinant Human LTA4 Hydrolase Assay for LTA4 Hydrolase Inhibitor Activity
Cond: average of results obtained; LTB4 quantified by enzyme-linked immunoassay
pKi: −log10 of the molar value.
The threshold is inclusive: pKi of exactly 7 counts as rule met; values below receive rule not met.

Answered examples (2):
CC(=O)N1CCC2CN(Cc3ccc(Oc4nc5ccccc5s4)cc3)CC2C1 (centres unmarked); rule met
NC(=O)N1[C@@H]2CC[C@H]1C[C@@H](NCCOc1ccc(Oc3nc4cc(Cl)ccc4s3)cc1)C2; rule not met

Data request: Threshold query (pKi >= 7) on NC(=O)N1C[C@@H]2C[C@H]1CN2CCOc1ccc(Oc2nc3ccccc3s2)cc1
Data returned: rule met

Data request: Is reported pKi greater than or equal to 7 here: NC(=O)N1CC2CN(CCc3ccc(Oc4nc5c(F)cccc5s4)cc3)CC2C1 (centres unmarked)
Data returned: rule met

Data request: Check if pKi >= 7 (inclusive). Item: NC(=O)NC1[C@H]2CN(Cc3ccc(Oc4nc5ccccc5s4)cc3)C[C@@H]12 (some centres unmarked)
Data returned: rule met

Data request: Answer whether pKi of COC(=O)c1ccc(CN2CC3CN(Cc4ccc(Oc5nc6ccccc6s5)cc4)CC3C2)cc1 (centres unmarked) is greater than or equal to 7.
Data returned: rule not met
